target: human TG6 (T021; Zedira) (Homo sapiens); assay: fluorescence isopeptidase
Sequence (O95932 whole entry): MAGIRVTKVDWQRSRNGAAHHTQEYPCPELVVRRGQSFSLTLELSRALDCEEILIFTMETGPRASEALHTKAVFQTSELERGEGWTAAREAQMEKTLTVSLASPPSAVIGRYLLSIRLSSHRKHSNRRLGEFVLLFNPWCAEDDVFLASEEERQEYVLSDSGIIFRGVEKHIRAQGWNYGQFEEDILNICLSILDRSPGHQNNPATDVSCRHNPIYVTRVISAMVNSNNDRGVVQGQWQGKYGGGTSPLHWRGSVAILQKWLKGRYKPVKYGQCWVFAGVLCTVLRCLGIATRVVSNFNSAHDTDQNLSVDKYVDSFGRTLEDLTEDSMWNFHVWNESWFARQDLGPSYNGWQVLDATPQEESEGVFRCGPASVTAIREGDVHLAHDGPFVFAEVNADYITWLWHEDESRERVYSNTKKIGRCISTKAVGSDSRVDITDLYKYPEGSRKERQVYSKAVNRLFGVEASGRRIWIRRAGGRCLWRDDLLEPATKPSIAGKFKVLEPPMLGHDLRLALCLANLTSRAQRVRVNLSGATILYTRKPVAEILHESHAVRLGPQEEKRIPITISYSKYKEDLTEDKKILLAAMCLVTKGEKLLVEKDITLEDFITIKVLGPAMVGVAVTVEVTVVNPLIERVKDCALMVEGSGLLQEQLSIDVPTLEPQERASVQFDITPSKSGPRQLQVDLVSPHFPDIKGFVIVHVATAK
readout-type: IC50 (µM)
Give bare numbers, in µM.

Identify IC50 associated with the molecule Nc1nc2c(ncn2[C@@H]2O[C@H](COP(=O)(O)OP(=O)(O)OP(=O)(O)O)[C@@H](O)[C@H]2O)c(=O)[nH]1 [GTP]
200
